Test system: RIPK5
runConditions: concentration: 1 μM, replicates: in singlicate; n = 1;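 also: KINOMEscan kinase panel screen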
experimentalReadout: %Inh (%)

In [3]: df
Out[3]:
                                    compound  measuredvalue
 0           Nc1cccc(-c2ccc3c(N)n[nH]c3c2)n1              0
 1  CC(=O)c1c(C)c2cnc(Nc3ccn(C)n3)nc2n(C2CCCC2)c1=O              0
 2               c1ccc(-c2ccnc3[nH]ccc23)cc1              7
 3  Cc1ccc(NC(=O)c2ccc(Cl)cc2)cc1-c1ccc(C(=O)Nc2ccncc2)cc1              0
 4  COc1ccc(CSc2nnc(-c3ccc4ncsc4c3)o2)cc1C(F)(F)F              0
 5        CCCCc1nn2ncccc2c1-c1ccnc(NC2CC2)n1              5
 6  Cc1c(Cn2c(C)c(C)n3c(=O)cc(N4CCOCC4)nc23)cccc1C(F)(F)F             67
 7  CC(=O)c1cccc(NC(=O)NC2CCN(c3ccnc(Nc4ccc(F)cc4)n3)C2)c1 (stereo not shown)              4
 8  COc1ccc(Nc2nccc(N3CCC(NC(=O)C(C)c4ccc(Cl)cc4)C3)n2)cc1 (stereo not shown)             12
 9  O=C1NC(=O)C(c2ccc(Cl)cc2)=C1Nc1cccc(Cl)c1              0
10                         Cn1cnc2c(N)ncnc21              0
11  O=C1NC(=O)C(c2ccc(Cl)cc2)=C1Nc1ccc(O)cc1              0
12  COc1nccc(-c2c(-c3ccc(F)cc3)ncn2CCCN2CCOCC2)n1              6
13  CC(=O)c1c(C)c2cnc(Nc3ccc(N4CCNCC4)cn3)nc2n(C2CCCC2)c1=O              0
14  CS(=O)(=O)Cc1ccc(Nc2nccc(-c3c(-c4cccc(NC(=O)C5CCCCC5)c4)nn4ncccc34)n2)cc1             39
15  O=C(Nc1n[nH]c2nc(-c3cccs3)c(Br)cc12)C1CC1              3
16   COc1ccc(-c2coc3ccc(-c4nnc(C)o4)cc23)cc1              0
17  Cc1ccc(NC(=O)Nc2ccc(Cl)c(C(F)(F)F)c2)cc1-c1ccc(C(=O)Nc2ccncc2)cc1              0
18  Cc1c(Cn2c3ccccc3n3c(=O)cc(N4CCOCC4)nc23)cccc1C(F)(F)F              0

* * *

Recorded measurements of %Inh, one per entry
System: DYRK1B
runConditions: concentration: 1 μM, replicates: in singlicate; n = 1
experimentalReadout: %Inh (%)

>>> df
                                    compound  unitofmeasurement  measuredvalue
 0  CCc1ccc(-c2ccc3c(c2)-c2n[nH]cc2S(=O)(=O)N3C)cc1                  %             11
 1  COc1cccc(NC(=O)Nc2ccc(C)c(-c3ccc(C(=O)Nc4ccncc4)cc3)c2)c1                  %             43
 2  COc1ccc(Nc2nccc(N3CCC(NC(=O)c4cc5ccccc5s4)C3)n2)cc1 (stereo not drawn)                  %              0
 3  Cc1ccc(NC(=O)Nc2ccccc2F)cc1-c1ccc(C(=O)Nc2ccncc2)cc1                  %              8
 4   COc1ccc(-c2coc3ccc(-c4nnc(C)o4)cc23)cc1                  %              0
 5        CCCCc1nn2ncccc2c1-c1ccnc(NC2CC2)n1                  %              3
 6    CC(C)c1cc(-c2ccc3c(N)n[nH]c3c2)nc(N)n1                  %              0
 7  Cc1c(Cn2c3ccccc3n3c(=O)cc(N4CCOCC4)nc23)cccc1C(F)(F)F                  %              0
 8  COc1cccc(C2=C(Nc3cc(Cl)c(O)c(Cl)c3)C(=O)NC2=O)c1                  %              0
 9  COC(=O)C(NC(=O)NC1CCN(c2ccnc(Nc3ccc(F)cc3)n2)C1)c1ccccc1 (stereo not drawn)                  %             17
10  Cc1cnc(N)c(/C=C/c2cncc(C(=O)NCCc3ccc(Cl)cc3Cl)c2)c1.Cl                  %             15
11  O=C(Nc1n[nH]c2nc(-c3cccs3)c(Br)cc12)C1CC1                  %              0
12  Cn1cncc1-c1cc2c(Nc3ccc(OCc4ccccc4)cc3)ncnc2cn1                  %             21
13             CCn1c(-c2c(N)noc2C)nc2cnccc21                  %              0
14  Cc1ccc(NC(=O)c2ccc(Cl)cc2)cc1-c1ccc(C(=O)Nc2ccncc2)cc1                  %              0
15  Nc1ncnc2occ(-c3ccc4c(c3)CCN4C(=O)Cc3cc(F)ccc3F)c12                  %              0
16  O=C(Nc1n[nH]c2nc(-c3ccco3)c(Br)cc12)C1CCN(Cc2ccccc2)C1.O=C(O)[C@H](O)[C@@H](O)C(=O)O (stereo not drawn)                  %              0
17  CNC(=O)c1ccc(C)c(-n2c(C)cc(OCc3ccc(F)cc3F)c(Br)c2=O)c1                  %             56

* * *

Test system: CDK3
runConditions: concentration: 1 μM, replicates: in singlicate; n = 1
experimentalReadout: %Inh (%)

>>> df
                                   molecule  measuredvalue
0  COc1ccc(Nc2nccc(NCCNC(=O)Nc3cc(C)ccc3C)n2)cc1 [GSK1379899]              6
1  COc1ccc(Nc2nccc(N3CCC(NC(=O)C(C)c4ccc(Cl)cc4)CC3)n2)cc1 (stereo not drawn) [GSK1379812]              0
2  CC(=O)c1cccc(NC(=O)NC2CCN(c3ccnc(Nc4ccc(F)cc4)n3)C2)c1 (stereo not drawn) [GSK1379710]              6

* * *

// %Inh lookup, one value per entry
System: SRC
runConditions: concentration: 1 μM, replicates: in singlicate; n = 1
experimentalReadout: %Inh (%)

>>> df
                                   molecule  measuredvalue
0  O=C1NC(=O)C(c2ccc(Cl)cc2)=C1Nc1cccc(Cl)c1              2
1  COc1ccc(Nc2nccc(-c3ccc(NC(=O)c4cc5cc(F)ccc5[nH]4)cc3)n2)cc1              0
2  O=C(Nc1n[nH]c2nc(-c3cccs3)c(Br)cc12)C1CCCC1              7
3  CN1c2ccc(-c3ccc(C(N)=O)cc3)cc2-c2[nH]ncc2S1(=O)=O              7
4  COc1ccc(Nc2nccc(N3CCC(NC(=O)C(C)c4ccc(Cl)cc4)C3)n2)cc1 (stereo not drawn)              0
5  COc1ccc(Nc2nccc(N3CCC(NC(=O)c4cc5ccccc5s4)C3)n2)cc1 (stereo not drawn)              0
6     O=c1cc(N2CCOCC2)nc2n(Cc3ccccc3F)ccn12              0
7  CNC(=O)c1ccc(C)c(-n2c(C)cc(OCc3ccc(F)cc3F)c(Br)c2=O)c1              0
8  COc1cccc(C2=C(Nc3cc(Cl)c(O)c(Cl)c3)C(=O)NC2=O)c1              0

* * *

System: CTK
Construct: gene MATK
runConditions: concentration: 1 μM, replicates: in singlicate; n = 1
experimentalReadout: %Inh (%)

In [3]: df
Out[3]:
                                    compound  measuredvalue
 0  Cc1c(Cn2c(C)c(C)n3c(=O)cc(N4CCOCC4)nc23)cccc1C(F)(F)F              0
 1  O=C(Nc1n[nH]c2nc(-c3cccs3)c(Br)cc12)C1CCCC1             49
 2             CCn1c(-c2c(N)noc2C)nc2cnccc21             14
 3  CS(=O)(=O)CCNCc1nc(-c2ccc3ncnc(Nc4ccc(OCc5ccccc5)c(Cl)c4)c3c2)cs1.Cl              0
 4  CCc1ccc(-c2ccc3c(c2)-c2n[nH]cc2S(=O)(=O)N3C)cc1              0
 5       Fc1ccc(-c2nc3n(c2-c2ccncc2)CCS3)cc1              0
 6      Cc1ccc(-c2nc(Nc3ccncc3)c3ccccc3n2)s1              8
 7           Nc1cccc(-c2ccc3c(N)n[nH]c3c2)n1              0
 8  COc1ccc(Nc2nccc(N3CCC(NC(=O)C(C)c4ccc(Cl)cc4)CC3)n2)cc1 (stereo not shown)              0
 9  Nc1nccc(-c2c(-c3ccc(F)cc3)ncn2C2CCN(Cc3ccccc3)CC2)n1             11
10   COc1ccc(-c2coc3ccc(-c4nnc(C)o4)cc23)cc1              0
11  COc1ccc(Nc2nccc(NCCNC(=O)Nc3cc(C)ccc3C)n2)cc1              4
12  CNc1nc(-c2ccc3c(N)n[nH]c3c2)cc(N2C[C@@H](C(=O)NC3CCCCC3)OC[C@H]2C)n1              0
13  COc1ccc(Nc2nccc(N3CCC(NC(=O)C(C)c4ccc(Cl)cc4)C3)n2)cc1 (stereo not shown)              4
14               c1ccc(-c2ccnc3[nH]ccc23)cc1              0
15     O=c1cc(N2CCOCC2)nc2n(Cc3ccccc3F)ccn12              0
16  Cc1ccc(NC(=O)Nc2ccccc2)cc1-c1ccc(C(=O)Nc2ccncc2)cc1              0
17    CC(C)c1cc(-c2ccc3c(N)n[nH]c3c2)nc(N)n1              0
18  Cc1nccc(-c2c(-c3ccc(F)cc3)ncn2CCCN2CCOCC2)n1.Cl              0
